Test: ATG_DR4_LXR_CIS: Attagene CIS-FACTORIAL HepG2 Assay for human Liver X Receptor (LXR), DR4 submotif (AID 2282929)
Conditions: HepG2 Attagene DR4 cis-reporter, mRNA transcription; actives raise or lower the signal
Calls of active or inactive are those of the source. How the source made its calls: active means hit-call score of the fitted dose curve at least 0.9, where 1 is the maximum; inactive means score below 0.9.
Write down one outcome, taken from active, inactive

Solved entries (count: 3):
compound=CCC[CH2][Sn]([Cl])([CH2]CCC)[CH2]CCC qualitative_label=active
compound=CCCSC(=O)N(CCC)CCC qualitative_label=inactive
compound=OCCOCCO qualitative_label=inactive

Exam item: Which result was noted for this compound in the test: "CC(C)COC(=O)c1ccccc1C(=O)OCC(C)C"
Marked response: active

* * *

Molecular target: Peroxisome proliferator-activated receptor gamma (Homo sapiens)
Assay: ATG_PPARg_TRANS: Attagene TRANS-FACTORIAL HepG2 Assay for human Peroxisome Proliferator-activated Receptor-gamma (PPARg) (AID 2283007)
Records with an inconclusive call do not appear. Calls of active or inactive are those of the source. The calls were made as follows: active = hit-call score of the fitted dose curve at least 0.9, where 1 is the maximum; inconclusive = response in the unintended direction; inactive = score below 0.9.
Write down one outcome, taken from true for active, false for inactive

Solved entries (count: 3):
test_smiles=COc1cc(C=O)cc2c1[C@H](COC(N)=O)[C@]1(OC(C)=O)ON2C[C@H]2[C@@H]1N2C(C)=O qualitative_label=false
test_smiles=Nc1ccc(Oc2ccc(N)cc2)cc1 qualitative_label=false
test_smiles=COP(=S)(OC)SCN1C(=O)c2ccccc2C1=O qualitative_label=false

Now let's try a different one.
Exam item: Which result was noted for this compound in the test: "Clc1ccc(C(c2ccc(Cl)cc2)C(Cl)Cl)cc1"
Marked response: false

* * *

Experiment: ATG_Sox_CIS: Attagene CIS-FACTORIAL HepG2 Assay for human SRY-box transcription factor (SOX) (AID 2282960)
Conditions: HepG2 Attagene cis-factorial SOX reporter, mRNA; actives raise or lower the signal
Calls of active or inactive are those of the source. Rule for the calls: active = hit-call score of the fitted dose curve at least 0.9, where 1 is the maximum; inactive = score below 0.9.
Write down one outcome, taken from true (1) = active, false (0) = inactive

Solved entries (count: 4):
molecule=Cc1ccc(N=C=O)cc1N=C=O qualitative_label="false (0)"
molecule=Nc1ccc(Cc2ccc(N)cc2)cc1 qualitative_label="false (0)"
molecule=COP(=S)(OC)SCN1C(=O)c2ccccc2C1=O qualitative_label="false (0)"
molecule=CC(C)(C)OOC(=O)c1ccccc1 qualitative_label="false (0)"

Exam item: Which result was noted for this molecule in the test: "Nc1ccc(Oc2ccc(N)cc2)cc1"
Marked response: false (0)

* * *

Read-out: E-selectin (Homo sapiens)
Test: BSK_3C_Eselectin: BioMAP Diversity Plus: 3C Assay for Eselectin Biomarker Activity (AID 2283015);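 on outcome: cell surface E-selectin protein quantified by ELISA 24 h after dosing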
Details: primary human endothelial cells (HUVEC); actives raise or lower the signal
Activity calls are given as the source filed them. The calls were made as follows: active = hit-call score of the fitted dose curve at least 0.9, where 1 is the maximum; inactive = score below 0.9.
Write down one outcome, taken from active, inactive

Solved entries (count: 3):
compound=CC(C)COC(=O)c1ccccc1C(=O)OCC(C)C qualitative_label=active
compound="CCCCC(CC)COC(=O)c1ccc(C(=O)OCC(CC)CCCC)c(C(=O)OCC(CC)CCCC)c1 (centres undefined)" qualitative_label=inactive
compound=ClC1=C(Cl)[C@]2(Cl)[C@H]3[C@H]([C@@H]4C=C[C@H]3C4)[C@@]1(Cl)C2(Cl)Cl qualitative_label=active

Now let's try a different one.
Exam item: Which result was noted for this compound in the test: "[O-][Cl+]O"
Marked response: inactive

* * *

Experiment: APR_HepG2_StressKinase_72hr: Apredica 72-hour HepG2 Assay for Stress Kinase (AID 2282921)
Conditions: HepG2 stress kinase (phospho-c-Jun) imaging, actives raise or lower the signal
Activity calls are given as the source filed them. Rule for the calls: active = hit-call score of the fitted dose curve at least 0.9, where 1 is the maximum; inactive = score below 0.9.
Write down one outcome, taken from active, inactive

compound=Cc1cc(N=Nc2ccccc2C)ccc1N qualitative_label=inactive
compound=CCC12COCN1COC2 qualitative_label=inactive

Exam item: Which result was noted for this compound in the test: "Clc1ccc(C(c2ccc(Cl)cc2)C(Cl)(Cl)Cl)cc1"
Marked response: inactive

Exam item: Which result was noted for this compound in the test: "COC(=O)Nc1nc2ccccc2[nH]1"
Marked response: active

Exam item: Which result was noted for this compound in the test: "COc1cc(C=O)cc2c1[C@H](COC(N)=O)[C@]1(OC(C)=O)ON2C[C@H]2[C@@H]1N2C(C)=O"
Marked response: inactive

Exam item: Which result was noted for this compound in the test: "C[C@]12C=CC3=C4CCC(=O)C=C4CC[C@H]3[C@@H]1CC[C@@H]2O"
Marked response: inactive

Exam item: Which result was noted for this compound in the test: "Nc1ccc(N=Nc2ccccc2)cc1"
Marked response: inactive

Exam item: Which result was noted for this compound in the test: "CCC[CH2][Sn]([Cl])([CH2]CCC)[CH2]CCC"
Marked response: inactive

Exam item: Which result was noted for this compound in the test: CCOc1cccc(C2(N3CCN(c4ccccc4)CC3)CCC(C)CC2)c1 (stereo unspecified)
Marked response: inactive

Exam item: Which result was noted for this compound in the test: "O=[N+]([O-])c1ccc(Oc2ccc(Cl)cc2Cl)cc1"
Marked response: inactive

Exam item: Which result was noted for this compound in the test: "O=C(Oc1ccc(Br)cc1)N1CCN2CCC1CC2"
Marked response: inactive

Exam item: Which result was noted for this compound in the test: "N#CC(Br)Br"
Marked response: inactive

Exam item: Which result was noted for this compound in the test: "OCCOCCO"
Marked response: inactive

Exam item: Which result was noted for this compound in the test: "CC(C)COC(=O)c1ccccc1C(=O)OCC(C)C"
Marked response: inactive

Exam item: Which result was noted for this compound in the test: "Cc1ccc(N=C=O)cc1N=C=O"
Marked response: inactive

Exam item: Which result was noted for this compound in the test: ClC1=C(Cl)C2(Cl)C3C(Cl)C=CC3C1(Cl)C2(Cl)Cl (stereo unspecified)
Marked response: active

Exam item: Which result was noted for this compound in the test: "CCOC(=O)[C@]1(c2ccccc2)Oc2ccccc2[C@@H]1N"
Marked response: active

Exam item: Which result was noted for this compound in the test: "Clc1ccc(Cl)c(Cl)c1"
Marked response: inactive

Exam item: Which result was noted for this compound in the test: "CCCSC(=O)N(CCC)CCC"
Marked response: inactive

Exam item: Which result was noted for this compound in the test: "Oc1ccc2ccc3cccc4ccc1c2c34"
Marked response: inactive

Exam item: Which result was noted for this compound in the test: "C=CCc1ccc2c(c1)OCO2"
Marked response: inactive

Exam item: Which result was noted for this compound in the test: "N#CC(Br)(Br)C(N)=O"
Marked response: inactive

Exam item: Which result was noted for this compound in the test: "c1ccc(N=Nc2ccccc2)cc1"
Marked response: inactive

Exam item: Which result was noted for this compound in the test: "Nc1ccc(Cl)cc1N"
Marked response: inactive

Exam item: Which result was noted for this compound in the test: "OCCCBr"
Marked response: inactive

Exam item: Which result was noted for this compound in the test: "O=C(Nc1ccccc1)c1ccccc1I"
Marked response: inactive

Exam item: Which result was noted for this compound in the test: "CC(C)(O)c1cnn2c(-c3ccc(F)c(-c4c(F)cccc4C#N)c3)cnc2n1"
Marked response: inactive

Exam item: Which result was noted for this compound in the test: "CCNS(=O)(=O)C(F)(F)C(F)(F)C(F)(F)C(F)(F)C(F)(F)C(F)(F)C(F)(F)C(F)(F)F"
Marked response: active

Where do the numbers come from? From PubChem BioAssay (EPA / NIEHS).
